B1: library; a variant is named by its letters at N, in order (parent)
chain: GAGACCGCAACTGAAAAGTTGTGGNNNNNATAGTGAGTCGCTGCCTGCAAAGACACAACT

Variants of: B1
assay-protocol: ligation selection enrichment (abundance after / before one-round selection) (fold); higher = more template-directed ligation activity
condition-parameters: with T7Psub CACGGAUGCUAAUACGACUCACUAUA; MgCl2 25 mM; 42 °C; 4 h; pH 8.5
Rule: Condition met for ligation selection enrichment not less than 0.5, Condition not met for anything less.

These solved cases illustrate the format of a correct answer.
INSERT INTO assay_data (variant_key, group_label) VALUES
  ('TTTTA', 'Condition not met'),
  ('ACTGC', 'Condition not met');

Reported ligation selection enrichment at or above 0.5? `ATAAT` Condition met

Reported ligation selection enrichment at or above 0.5? `CCCGA` Condition not met

Reported ligation selection enrichment at or above 0.5? `GTACA` Condition not met

Reported ligation selection enrichment at or above 0.5? `CGCTT` Condition not met

Reported ligation selection enrichment at or above 0.5? `AGCTA` Condition not met

Reported ligation selection enrichment at or above 0.5? `GCTTA` Condition not met

Reported ligation selection enrichment at or above 0.5? `CAAAG` Condition not met

Reported ligation selection enrichment at or above 0.5? `CACTA` Condition not met

Reported ligation selection enrichment at or above 0.5? `TGCGG` Condition not met

Reported ligation selection enrichment at or above 0.5? `CGTAC` Condition not met

Reported ligation selection enrichment at or above 0.5? `AAGTC` Condition not met

Reported ligation selection enrichment at or above 0.5? `ACAAT` Condition met

Reported ligation selection enrichment at or above 0.5? `GCCCT` Condition not met

Reported ligation selection enrichment at or above 0.5? `GCCGA` Condition met
